These entries and their values trace back to patent US20240376155A1.

measurement parameters: mouse, injection, single dose 3 mg/kg, T = 6 h
Bridge positions count the residues as written; N and C are the ends. Square brackets hold non-standard residues; d marks the D form. Peptide text beside a SMILES is read from it. * marks the point of attachment. ξ: configuration not given here. X1 = CNC(=O)c1ccccc1Sc1ccc2c(/C=C/c3ccccn3)nn(C(=O)N(CCNC(=O)[C@@H](N)CCC(=O)O)CCC(=O)*)c2c1; X3 = CNC(=O)c1ccccc1Sc1ccc2c(/C=C/c3ccccn3)nn(C(=O)N(CCOC(=O)[C@@H](N)CCC(=O)O)CCC(=O)*)c2c1; X2 = CNC(=O)c1ccccc1Sc1ccc2c(/C=C/c3ccccn3)nn(C(=O)N(CCNC(=O)CC[C@H](N)C(=O)O)CCC(=O)*)c2c1; Dab = NCC[C@H](N)C(=O)O; ξL = CC(C)CC(N)C(=O)O
measured quantity: Blood Plasma Conc. of released axitinib

- compound: "CNC(=O)c1ccccc1Sc1ccc2c(/C=C/c3ccccn3)nn(C(=O)N(CCOC(=O)[C@@H](N)CCC(=O)O)CCC(=O)N[C@H]3CCNC(=O)[C@H]([C@@H](C)O)NC(=O)[C@H](CCN)NC(=O)[C@H](CCN)NC(=O)C(CC(C)C)NC(=O)[C@@H](Cc4ccccc4)NC(=O)[C@H](CCN)NC3=O)c2c1 (stereo partly shown) [Example 7] (X3-[Dab][Dab][dF][ξL][Dab][Dab]T; lactam 1-C)"
  reading: "T = 6 h: BLQ"
- compound: "CNC(=O)c1ccccc1Sc1ccc2c(/C=C/c3ccccn3)nn(C(=O)N(CCNC(=O)CC[C@H](N)C(=O)O)CCC(=O)N[C@H](C(=O)N[C@@H](CCN)C(=O)N[C@H]3CCNC(=O)[C@H]([C@@H](C)O)NC(=O)[C@H](CCN)NC(=O)[C@H](CCN)NC(=O)[C@H](CC(C)C)NC(=O)[C@@H](Cc4ccccc4)NC(=O)[C@H](CCN)NC3=O)[C@@H](C)O)c2c1 [Example 9, reference compound] (X2-T[Dab][Dab][Dab][dF]L[Dab][Dab]T; lactam 3-C)"
  reading: "T = 6 h: BLQ"
- compound: "CNC(=O)c1ccccc1Sc1ccc2c(/C=C/c3ccccn3)nn(C(=O)N(CCNC(=O)[C@@H](N)CCC(=O)O)CCC(=O)N[C@H]3CCNC(=O)[C@H]([C@@H](C)O)NC(=O)[C@H](CCN)NC(=O)[C@H](CCN)NC(=O)C(CC(C)C)NC(=O)[C@@H](Cc4ccccc4)NC(=O)[C@H](CCN)NC3=O)c2c1 (stereo partly shown) [Example 2] (X1-[Dab][Dab][dF][ξL][Dab][Dab]T; lactam 1-C)"
  reading: "T = 6 h: BLQ"
